Known MIC S. epidermidis of a selection of compounds
Test system: Staphylococcus epidermidis (laboratory strain from clinical isolate)
Type: cell-based
Setup conditions: laboratory strain from clinical isolate, 16 h
Square brackets hold non-standard residues; d marks the D form. Peptide text beside a SMILES is read from it. Gly(N-2-aminoethyl) = NCCNCC(=O)O; Nphe = O=C(O)CNCc1ccccc1; Nlys = NCCCCNCC(=O)O

{"Compound": "NCCNCC(=O)N(CC(=O)N(CC(=O)N(CCN)CC(=O)N(CC(=O)N(CC(=O)N(CCN)CC(=O)N(CC(=O)N(CC(N)=O)Cc1ccccc1)Cc1ccccc1)Cc1ccccc1)Cc1ccccc1)Cc1ccccc1)Cc1ccccc1 [Peptoid 8, (NaeNpheNphe)3] (H-[Gly(N-2-aminoethyl)][Nphe][Nphe][Gly(N-2-aminoethyl)][Nphe][Nphe][Gly(N-2-aminoethyl)][Nphe][Nphe]-NH2)", "Test target": "Staphylococcus epidermidis (laboratory strain from clinical isolate)", "MIC S. epidermidis": ">100 µM"}
{"Compound": "NCCNCC(=O)N(CC(=O)N(CC(=O)N(CCN)CC(=O)N(CC(=O)N(CC(N)=O)Cc1ccccc1)Cc1ccccc1)Cc1ccccc1)Cc1ccccc1 [Peptoid 9, (NaeNpheNphe)2] (H-[Gly(N-2-aminoethyl)][Nphe][Nphe][Gly(N-2-aminoethyl)][Nphe][Nphe]-NH2)", "Test target": "Staphylococcus epidermidis (laboratory strain from clinical isolate)", "MIC S. epidermidis": ">100 µM"}
{"Compound": "NCCCCNCC(=O)N(CC(=O)N(CC(=O)N(CCCCN)CC(=O)N(CC(=O)N(CC(N)=O)Cc1ccccc1)Cc1ccccc1)Cc1ccccc1)Cc1ccccc1 [Peptoid 6, (NLysNpheNphe)2] (H-[Nlys][Nphe][Nphe][Nlys][Nphe][Nphe]-NH2)", "Test target": "Staphylococcus epidermidis (laboratory strain from clinical isolate)", "MIC S. epidermidis": ">100 µM"}

* * *

Known ED50 HepG2 of a selection of molecules
System: HepG2 cells
Protocol notes: Cytotoxicity assay with HepG2 (alamarBlue)
Assay type: cell-based, human
Setup conditions: human, HepG2 cells, 24 h
Description: The activity of our peptoid library was assessed against both bacterial and mammalian cells to gain a broader understanding of the factors that lead to effective and selective antimicrobial peptoids. […] Cytotoxicity analyses were performed in 96-well plates (Costar, Fisher Scientific) using alamarBlue® (Invitrogen) for cell viability detection using a modified protocol as described previously. […] Cells were counted using a Neubauer Improved Haemocytometer. […]
Square brackets hold non-standard residues; d marks the D form. Peptide text beside a SMILES is read from it. Gly(N-2-aminoethyl) = NCCNCC(=O)O; Nphe = O=C(O)CNCc1ccccc1

{"Molecule": "NCCNCC(=O)N(CC(=O)N(CC(=O)N(CCN)CC(=O)N(CC(=O)N(CC(=O)N(CCN)CC(=O)N(CC(=O)N(CC(=O)N(CCN)CC(=O)N(CC(=O)N(CC(N)=O)Cc1ccccc1)Cc1ccccc1)Cc1ccccc1)Cc1ccccc1)Cc1ccccc1)Cc1ccccc1)Cc1ccccc1)Cc1ccccc1 [Peptoid 7, (NaeNpheNphe)4] (H-[Gly(N-2-aminoethyl)][Nphe][Nphe][Gly(N-2-aminoethyl)][Nphe][Nphe][Gly(N-2-aminoethyl)][Nphe][Nphe][Gly(N-2-aminoethyl)][Nphe][Nphe]-NH2)", "ED50 HepG2": ">100 µM"}
{"Molecule": "NCCNCC(=O)N(CC(=O)N(CC(=O)N(CCN)CC(=O)N(CC(=O)N(CC(=O)N(CCN)CC(=O)N(CC(=O)N(CC(N)=O)Cc1ccccc1)Cc1ccccc1)Cc1ccccc1)Cc1ccccc1)Cc1ccccc1)Cc1ccccc1 [Peptoid 8, (NaeNpheNphe)3] (H-[Gly(N-2-aminoethyl)][Nphe][Nphe][Gly(N-2-aminoethyl)][Nphe][Nphe][Gly(N-2-aminoethyl)][Nphe][Nphe]-NH2)", "ED50 HepG2": ">100 µM"}
{"Molecule": "C[C@@H](c1ccccc1)N(CC(N)=O)C(=O)CN(C(=O)CN(CCN)C(=O)CN(C(=O)CN(C(=O)CNCCN)[C@@H](C)c1ccccc1)[C@@H](C)c1ccccc1)[C@@H](C)c1ccccc1 [Peptoid 18, (NaeNspeNspe)2]", "ED50 HepG2": ">100 µM"}
